# tested.on: Human TRPA1 (Homo sapiens, UniProt O75762)
# Sequence (O75762 whole entry): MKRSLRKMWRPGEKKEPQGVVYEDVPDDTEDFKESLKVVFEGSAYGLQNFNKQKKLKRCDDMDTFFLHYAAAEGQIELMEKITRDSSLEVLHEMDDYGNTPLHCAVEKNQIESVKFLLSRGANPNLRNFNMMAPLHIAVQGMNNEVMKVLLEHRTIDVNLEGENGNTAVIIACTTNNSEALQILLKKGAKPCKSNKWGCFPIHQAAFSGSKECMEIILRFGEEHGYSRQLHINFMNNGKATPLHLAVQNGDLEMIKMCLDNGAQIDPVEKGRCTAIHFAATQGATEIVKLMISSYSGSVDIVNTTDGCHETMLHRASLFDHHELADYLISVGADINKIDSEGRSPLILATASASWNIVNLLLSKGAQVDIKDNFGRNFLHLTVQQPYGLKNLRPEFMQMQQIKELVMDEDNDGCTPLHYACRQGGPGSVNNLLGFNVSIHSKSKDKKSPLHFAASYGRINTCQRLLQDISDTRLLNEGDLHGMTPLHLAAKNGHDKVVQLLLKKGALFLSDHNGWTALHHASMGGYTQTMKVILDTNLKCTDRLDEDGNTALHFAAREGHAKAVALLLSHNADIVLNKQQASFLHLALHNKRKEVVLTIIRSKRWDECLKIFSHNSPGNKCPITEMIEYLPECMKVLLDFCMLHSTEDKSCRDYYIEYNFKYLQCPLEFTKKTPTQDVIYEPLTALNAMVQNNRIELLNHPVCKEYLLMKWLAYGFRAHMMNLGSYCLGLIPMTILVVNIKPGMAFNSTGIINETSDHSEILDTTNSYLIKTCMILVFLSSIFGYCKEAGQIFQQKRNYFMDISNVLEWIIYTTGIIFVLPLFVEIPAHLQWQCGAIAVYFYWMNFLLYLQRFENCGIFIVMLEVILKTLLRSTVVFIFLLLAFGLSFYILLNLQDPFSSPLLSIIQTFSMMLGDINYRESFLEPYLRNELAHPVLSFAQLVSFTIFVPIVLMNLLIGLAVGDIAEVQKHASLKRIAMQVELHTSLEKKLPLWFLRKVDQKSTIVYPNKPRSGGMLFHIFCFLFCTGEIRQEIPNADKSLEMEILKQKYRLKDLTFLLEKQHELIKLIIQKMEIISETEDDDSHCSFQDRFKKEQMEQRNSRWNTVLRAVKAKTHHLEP
# protocol.description: 45Calcium uptake assay: inhibition of AITC induced cellular uptake of radioactive calcium
# test.parameters: AITC (30 μM) induced 45Ca uptake; Human TRPA1 expressing CHO cells; read-out: Human IC50 value (range)
reported.metric: IC50

Requested read-out: IC50. Entry: Cn1nc2c(c1CC(=O)Nc1nc(-c3cc(F)c(OC(F)F)c(F)c3)cs1)c(=O)n(C)c(=O)n2C [Example 64]
< 50 nM

Using the record for Cc1cc2c(c(=O)n(C)c(=O)n2C)n1CC(=O)Nc1nc(-c2ccc(OCC(C)(C)C)c(F)c2)cs1 [Example 31] , report its IC50.
50 to 100 nM

Any idea what its IC50 is? The compound is Cc1cc2c(c(=O)n(C)c(=O)n2C)n1CC(=O)Nc1nc(-c2ccc(C(F)(F)F)c(F)c2)cs1 [Example 22]
< 50 nM

// lookup IC50 for Cc1cc2c(c(=O)n(C)c(=O)n2C)n1CC(=O)Nc1nc(-c2cc(Cl)c(OCC(C)(C)C)c(Cl)c2)cs1 [Example 29]
< 50 nM

----------
Exercise: state measured inhibition at 10 µM for each of the molecules provided.
# tested.on: Human TRPA1 (Homo sapiens)
# Construct: expressed in transfected cells; host or cells: CHO cells
# protocol.description: 45Calcium uptake assay: inhibition of AITC induced cellular uptake of radioactive calcium
# Assay type: cell-based
# test.parameters: 10.0 μM test compound; AITC (30 μM) induced 45Ca uptake; Human TRPA1 expressing CHO cells; read-out: Percentage inhibition at 10.0 μM

Recorded inhibition at 10 µM of Cn1nc2c(c1CC(=O)Nc1nc(-c3ccc(F)c(F)c3)cs1)c(=O)n(C)c(=O)n2C [Example 51] , please.
79.7%

Suppose we examine the molecule CC(C)COc1c(Cl)cc(-c2csc(NC(=O)Cn3ncc4c3c(=O)n(C)c(=O)n4C)n2)cc1Cl [Example 75] ; what inhibition at 10 µM value has been reported?
100%

I'd like to know its inhibition at 10 µM. The molecule in question is Cn1c(=O)c2c(ccn2CC(=O)Nc2nc(-c3cc(F)c(OC(F)F)c(F)c3)cs2)n(C)c1=O [Example 10]
95.3%

Sample Cn1nc2c(c1CC(=O)Nc1nc(-c3ccc(F)cc3F)cs1)c(=O)n(C)c(=O)n2C [Example 50] — what was its inhibition at 10 µM?
19.8%

Reported inhibition at 10 µM for Cn1c(=O)c2c(cnn2CC(=O)Nc2cc(-c3ccc(Br)cc3)on2)n(C)c1=O [Example 84] : what is it?
83.9%

Reported inhibition at 10 µM, molecule Cn1nc2c(c1CC(=O)Nc1nc(-c3ccc(C(F)(F)F)cc3)cs1)c(=O)n(C)c(=O)n2C [Example 47] : ____
99.5%

Given the molecule Cc1cc2c(c(=O)n(C)c(=O)n2C)n1CC(=O)Nc1nc(-c2cc(F)c(OCC(F)(F)F)c(Cl)c2)cs1 [Example 30] , what is its reported inhibition at 10 µM?
100%

----------
# tested.on: Human TRPA1 (Homo sapiens)
# Construct: expressed in transfected cells; host or cells: CHO cells
# protocol.description: 45Calcium uptake assay: inhibition of AITC induced cellular uptake of radioactive calcium
# Assay type: cell-based
# test.parameters: 1.0 μM test compound; AITC (30 μM) induced 45Ca uptake; Human TRPA1 expressing CHO cells; read-out: Percentage inhibition at 1.0 μM
# binarize inhibition at 1 µM: threshold 50% inclusive, high side true (1), low side false (0)

Hello, I need to know if Cn1nc2c(c1CC(=O)Nc1nc(-c3cc(F)cc(C(F)(F)F)c3)cs1)c(=O)n(C)c(=O)n2C [Example 58] has measured inhibition at 1 µM not below 50%. Thanks!
true (1)

Does the reported inhibition at 1 µM for Cn1c(=O)c2c(ccn2CC(=O)Nc2nc(-c3cc(F)c(OCC4CCC4)c(F)c3)cs2)n(C)c1=O [Example 18] fall at or above the 50% mark?
false (0)

Check this compound for inhibition at 1 µM at or above 50%: Cn1c(=O)c2c(ccn2CC(=O)Nc2nc(-c3ccc(OCC(F)(F)F)c(Br)c3)cs2)n(C)c1=O [Example 23]
true (1)

Would you say Cn1c(=O)c2c(cnn2CC(=O)Nc2nc(-c3ccc(F)c(C(F)(F)F)c3F)cs2)n(C)c1=O [Example 71] shows inhibition at 1 µM at minimum 50%?
true (1)

Decide: is the reported value of inhibition at 1 µM for Cn1c(=O)c2c(ccn2CC(=O)Nc2nc(-c3cc(F)c(OCC(F)(F)F)c(F)c3)cs2)n(C)c1=O [Example 11] equal to or greater than 50%?
true (1)

Would you say Cn1nc2c(c1CC(=O)Nc1nc(-c3ccc(F)cc3F)cs1)c(=O)n(C)c(=O)n2C [Example 50] shows inhibition at 1 µM at minimum 50%?
false (0)

Is it the case that Cn1c(=O)c2c(cnn2CC(=O)Nc2nc(-c3ccc(C(F)(F)F)c(F)c3)cs2)n(C)c1=O [Example 68] has inhibition at 1 µM reaching or exceeding 50%?
true (1)

inhibition at 1 µM >= 50% for Cn1nc2c(c1CC(=O)Nc1nc(-c3cc(F)cc(F)c3)cs1)c(=O)n(C)c(=O)n2C [Example 52] ?
false (0)

In plain terms: is recorded inhibition at 1 µM at least 50% for Cn1c(=O)c2c(c(Br)cn2CC(=O)Nc2nc(-c3ccc(C(F)(F)F)c(F)c3)cs2)n(C)c1=O [Example 37] ?
true (1)

Entry Cn1c(=O)c2c(CC(=O)Nc3nc(-c4ccc(F)c(C(F)(F)F)c4F)cs3)cn(C)c2n(C)c1=O [Example 43] : is its inhibition at 1 µM no less than 50%?
false (0)

Can Cc1cc2c(c(=O)n(C)c(=O)n2C)n1CC(=O)Nc1nc(-c2cc(F)c(OCC3CCC3)c(F)c2)cs1 [Example 27] be said to have inhibition at 1 µM at or above 50%?
true (1)

Could you tell me if the measured inhibition at 1 µM of Cn1nc2c(c1CC(=O)Nc1nc(-c3cc(F)c(OC(F)F)c(F)c3)cs1)c(=O)n(C)c(=O)n2C [Example 64] reaches 50% or more?
true (1)

Decide: is the reported value of inhibition at 1 µM for Cn1c(=O)c2c(ccn2CC(=O)Nc2nc(-c3ccc(Cl)c(C(F)(F)F)c3)cs2)n(C)c1=O [Example 4] equal to or greater than 50%?
false (0)

Determine whether this compound has inhibition at 1 µM no lower than 50%: Cc1cn(CC(=O)Nc2nc(-c3cc(F)c(OCC(C)(C)C)c(F)c3)cs2)c2c(=O)n(C)c(=O)n(C)c12 [Example 34]
true (1)

Kindly determine if inhibition at 1 µM recorded for Cc1cc2c(c(=O)n(C)c(=O)n2C)n1CC(=O)Nc1nc(-c2cc(F)c(OCC(C)(C)C)c(Cl)c2)cs1 [Example 28] is above or exactly 50%.
true (1)

For this compound, is measured inhibition at 1 µM 50% or higher? Cn1c(=O)c2c(cnn2CC(=O)Nc2cc(-c3ccc(Br)cc3)on2)n(C)c1=O [Example 84]
false (0)

Entry Cn1c(=O)c2c(cnn2CC(=O)Nc2nc(-c3cc(F)c(OCC(C)(C)C)c(F)c3)cs2)n(C)c1=O [Example 78] : is its inhibition at 1 µM no less than 50%?
true (1)

Test whether the compound Cn1nc2c(c1CC(=O)Nc1nc(-c3ccc(Cl)cc3)cs1)c(=O)n(C)c(=O)n2C [Example 46] records inhibition at 1 µM of 50% or higher.
true (1)

Hi, just wondering whether Cn1c(=O)c2c(cnn2CC(=O)Nc2nc(-c3cc(F)c(OCC(C)(C)C)c(Cl)c3)cs2)n(C)c1=O [Example 80] shows inhibition at 1 µM of 50% or higher.
true (1)

Quick check: does CC(C)COc1c(F)cc(-c2csc(NC(=O)Cn3ccc4c3c(=O)n(C)c(=O)n4C)n2)cc1F [Example 6] have inhibition at 1 µM greater than or equal to 50%?
false (0)

Given the entry Cn1c(=O)c2c(CC(=O)Nc3nc(-c4cc(F)c(OCC(F)(F)F)c(F)c4)cs3)cn(C)c2n(C)c1=O [Example 44] , answer whether its inhibition at 1 µM meets or surpasses 50%.
false (0)

Could you verify whether the entry Cc1cc2c(c(=O)n(C)c(=O)n2C)n1CC(=O)Nc1nc(-c2cc(F)c(OCC(F)(F)F)c(Cl)c2)cs1 [Example 30] shows inhibition at 1 µM of no less than 50%?
true (1)

Quick check: does Cn1nc2c(c1CC(=O)Nc1nc(-c3ccc(C(F)(F)F)cc3)cs1)c(=O)n(C)c(=O)n2C [Example 47] have inhibition at 1 µM greater than or equal to 50%?
true (1)

Reported inhibition at 1 µM reaches at least 50% for Cn1nc2c(c1CC(=O)Nc1cc(-c3ccc(Br)cc3)on1)c(=O)n(C)c(=O)n2C [Example 65] ?
false (0)

Is inhibition at 1 µM at least 50%? Consider CN(C)Cc1cn(CC(=O)Nc2nc(-c3cc(F)c(OCC(C)(C)C)c(F)c3)cs2)c2c(=O)n(C)c(=O)n(C)c12 [Example 39]
false (0)

Form field: inhibition at 1 µM at least 50%? Entry: CC(C)Cc1ccc(-c2csc(NC(=O)Cc3c4c(=O)n(C)c(=O)n(C)c4nn3C)n2)cc1 [Example 45]
true (1)

Entry Cn1c(=O)c2c(ccn2CC(=O)Nc2nc(-c3ccc(C(F)(F)F)c(F)c3)cs2)n(C)c1=O [Example 3] : is its inhibition at 1 µM no less than 50%?
true (1)

Assess whether reported inhibition at 1 µM for Cn1c(=O)c2c(ccn2CC(=O)Nc2nc(-c3cc(Cl)c(OCC4CCC4)c(Cl)c3)cs2)n(C)c1=O [Example 19] sits at 50% or higher.
true (1)

Numbers sourced from patent US9000159B2.
